Tested on: NCI-H322M lung
Protocol text: NCI-60 one-dose screen, 48 h
Protocol conditions: 10 µM unless noted
Compounds without any hit were thinned out: in the full panel of roughly 83,000, 20% have a hit. Active and inactive are the calls of the source. The calls were made as follows: active = growth percent below 10; inactive = the rest.
I would appreciate it if you answered using one of these outcomes: active, inactive

Any idea what this test logged for CCOC(=O)c1c(Nc2ccccc2)nn2c(-c3ccco3)c(C#N)cnc12 ?
inactive

Any idea what this test logged for Nc1c(C(=O)c2ccc(Br)cc2)oc2nc(-c3cnccn3)cc(-c3cccs3)c12 ?
inactive

Any idea what this test logged for N#Cc1nc(-c2ccccc2)oc1N1CCC(CO)C1 (stereo not drawn) ?
inactive

Any idea what this test logged for O=C(CSc1nnc(-c2ccc3nc(-c4ccc(Cl)cc4)[nH]c3c2)o1)Nc1ccc(C(=O)/C=C/c2ccc(Cl)cc2)cc1 ?
inactive

Any idea what this test logged for COc1ccc(/C=C/C(=O)c2ccc(NC(=O)CSc3nnc(-c4ccc5nc(-c6ccc(Cl)cc6)[nH]c5c4)o3)cc2)cc1 ?
inactive

Any idea what this test logged for C=C1CC[C@H]2[C@@](C)(CCC3OC(c4ccc(OCc5cn(C6CC(OC(C)=O)C(OC(C)=O)C(COC(C)=O)O6)nn5)cc4)OC[C@]32C)[C@@H]1/C=C/C1=CCOC1=O (stereo partly drawn) ?
inactive

Any idea what this test logged for CCCC(=O)NC(c1cccnc1)c1cc(C)c2cccnc2c1O (stereo not drawn) ?
inactive

Any idea what this test logged for Clc1ccc(Cc2nnc3sc(-c4cccnc4)nn23)cc1 ?
inactive

Any idea what this test logged for O=C1/C(=C/C2=Cc3ccccc3OC2)SC(=S)N1c1ccc(F)cc1 ?
inactive

Any idea what this test logged for O=C(CN1C(=O)/C(=C/c2ccccc2)SC1=S)N1CCOCC1 ?
inactive

Any idea what this test logged for Cc1ccc(-c2nc(C(Cl)Cl)nc3cc(-c4ccccc4)nn23)cc1 ?
active

Any idea what this test logged for Clc1ccc2c(NCCCN3CCOCC3)c3oc4ccccc4c3nc2c1 ?
inactive

Any idea what this test logged for CC(C)(O)c1cncc(-c2ccc3ncnc(N4CCc5cc(F)c(Cl)cc54)c3c2)c1 ?
active

Any idea what this test logged for Cc1nc(-c2cc3ccccc3oc2=O)ccc1C(=O)/C=C/c1ccc(N2CCOCC2)cc1 ?
inactive

Any idea what this test logged for O=C(CSc1nc2sc3c(c2c(=O)n1-c1ccc(Cl)cc1)CCCC3)NNC(=O)Nc1cccc(C(F)(F)F)c1 ?
inactive

Any idea what this test logged for COc1ccccc1C(=O)CSc1nc(Nc2ccc(S(N)(=O)=O)cc2)c2ccccc2n1 ?
inactive

Any idea what this test logged for C/C(=C(/c1ccc(Cl)cc1)c1ccc(OCCN)cc1)c1ccc(C)cc1 ?
inactive

Any idea what this test logged for CC(C)(C)Nc1nc2c(OCCc3ccccc3)cccn2c1-c1ccc(O)cc1 ?
inactive

Any idea what this test logged for COc1ccc(-c2nc3ccc(-c4nnc(SCC(=O)Nc5ccc(C(=O)/C=C/c6ccc(Cl)cc6)cc5)o4)cc3[nH]2)cc1OC ?
inactive

Any idea what this test logged for Cn1cc(-c2cc(N)n3nc(-c4cn(C)c5ccc(Cl)cc45)cc3n2)c2cc(Cl)ccc21 ?
inactive

Any idea what this test logged for NS(=O)(=O)c1ccc(Nc2nc(Nc3ccccc3)nc(-n3nc(-c4ccccc4)cc3-c3ccccc3)n2)cc1 ?
inactive

Any idea what this test logged for Clc1ccc2oc3c(OCCCn4ccnc4)c4ccccc4nc3c2c1 ?
inactive

Any idea what this test logged for CSc1ccc2c(c1)N(C(=O)/C(C#N)=C/c1c[nH]c3ccccc13)c1ccccc1S2 ?
inactive

Any idea what this test logged for COC(=O)C(Cc1ccccc1)NS(=O)(=O)/N=C1\NC(=O)NC1=C(Cl)Cl (stereo not drawn) ?
inactive

Any idea what this test logged for COc1cc(/C=C/C(=O)c2cc(OC)c(OC)c(OC)c2)ccc1Oc1nc(NCCO)nc(N2CCOCC2)n1 ?
inactive

Any idea what this test logged for CCCC(=O)NC(c1ccc(N(CC)CC)cc1)c1cc(C)c2cccnc2c1O (stereo not drawn) ?
inactive

Any idea what this test logged for C#C[C@]1(O)CC[C@H]2[C@@H]3CC=C4c5sc(-c6ccc(F)cn6)nc5CC[C@]4(C)[C@H]3CC[C@@]21C ?
inactive

Any idea what this test logged for COc1cc(-c2nc3ccc(-c4nnc(SCC(=O)Nc5ccc(C(C)=O)cc5)o4)cc3[nH]2)cc(OC)c1OC ?
inactive
